Here, each record is paired with measured mortality at 1 ppm data.
# System: brine shrimp (Artemia franciscana)
# protocol-details: whole plant or invertebrate
# number only, unit % dropped from output

Some solved cases for reference:
compound="C=CC(C#N)OC(=O)CCCCCCCCC (stereo not shown) [CHP decanoate]" experimental_readout="mortality at 1 ppm" numeric_value=15
compound="C=C(C)[C@H]1Cc2c(ccc3c2O[C@@H]2COc4cc(OC)c(OC)cc4[C@@H]2C3=O)O1 [rotenone, reference compound]" experimental_readout="mortality at 1 ppm" numeric_value=100
compound="N#CC(O)/C=C/c1ccccc1 (stereo not shown) [cinnamyl cyanohydrin]" experimental_readout="mortality at 1 ppm" numeric_value=25
compound="CC(C)=CCC/C(C)=C/C(O)C#N (stereo not shown) [citryl cyanohydrin]" experimental_readout="mortality at 1 ppm" numeric_value=0
compound="C=CC(C#N)OC(=O)/C=C/c1ccccc1 (stereo not shown) [CHP cinnamate]" experimental_readout="mortality at 1 ppm" numeric_value=95
compound="O=C(O)C=Cc1ccccc1 [cinnamic acid, reference compound]" experimental_readout="mortality at 1 ppm" numeric_value=30

Below: the item to evaluate.
Challenge: For the compound CC(C)=CCCC(C)CC(=O)O (stereo not shown) [citronellic acid, reference compound] , what mortality at 1 ppm is on record?
Response given: 40

* * *

# Tested on: adult house fly (Musca domestica)
# protocol-details: whole plant or invertebrate
# measurement-conditions: topical, 24 h, read-out: Percentage mortality at 24 h
experimental-readout: mortality at 100 µg/fly
Record the result as a number with its unit.

Some solved cases for reference:
compound="C=CC1CNC(=S)O1 (centres unmarked)" result=5%
compound="CC(C)=CCCC(C)CC(=O)O (centres unmarked) [citronellic acid, reference compound]" result=100%
compound="C=CC(C#N)OC(=O)CCCCCCCCC (centres unmarked) [CHP decanoate]" result=100%
compound="C=CC(C#N)OC(=O)/C=C/c1ccccc1 (centres unmarked) [CHP cinnamate]" result=87%

Below: the item to evaluate.
Challenge: Find the measured mortality at 100 µg/fly: item O=C(O)C=Cc1ccccc1 [cinnamic acid, reference compound] , target or system adult house fly (Musca domestica).
Response given: 0%

* * *

# Test system: lesser grain borer (Rhizopertha dominica)
# measurement-conditions: in vivo
Label MET when LC50 is strictly below 2 µg/mL; at or above that, label NOT MET.

compound="C=CCN=C=S [AITC, allyl isothiocyanate]" target_under_test="lesser grain borer (Rhizopertha dominica)" class=MET

Challenge: In the record for CCCC(C)C(O)C#N (stereo not shown) [2-methylvaleraldehyde cyanohydrin] , is LC50 less than 2 µg/mL?
Response given: NOT MET

Challenge: In the record for C=CC(C#N)OC(C)=O (stereo not shown) [CHP-Ace, CHP acetate] , is LC50 less than 2 µg/mL?
Response given: MET

Challenge: In the record for C=CC(C#N)OC(=O)C(C)(C)C (stereo not shown) [CHP-Piv, CHP pivalate] , is LC50 less than 2 µg/mL?
Response given: NOT MET

Challenge: In the record for N#CC(O)c1ccccc1[N+](=O)[O-] (stereo not shown) [2-nitromandelonitrile cyanohydrin] , is LC50 less than 2 µg/mL?
Response given: NOT MET

Challenge: In the record for C=CCC#N [AC, allyl cyanide] , is LC50 less than 2 µg/mL?
Response given: NOT MET

Challenge: In the record for COP(=O)(OC)OC=C(Cl)Cl [dichlorvos, reference compound] , is LC50 less than 2 µg/mL?
Response given: MET

* * *

Here, each record is paired with measured log10 of LC50 data.
# System: adult house fly (Musca domestica)
# measurement-conditions: in vivo
Hello, just confirming the data are log10 of LC50 with units of µg/mL.

Some solved cases for reference:
molecule="C=CC(O)CC#N (centres unmarked) [CHB, 1-cyano-2-hydroxy-3-butene]" experimental_readout="log10 of LC50" numeric_value=0.79
molecule="C=CCC#N [AC, allyl cyanide]" experimental_readout="log10 of LC50" numeric_value=0.56
molecule="C=CC(O)C#N (centres unmarked) [CHP, 3-cyano-3-hydroxy-1-propene]" experimental_readout="log10 of LC50" numeric_value=-0.82

Challenge: For the molecule C=CC(C#N)OC(=O)C(C)(C)C (centres unmarked) [CHP-Piv, CHP pivalate] , what log10 of LC50 is on record?
Response given: 0.14

Challenge: For the molecule C=CC(C#N)OC(=O)CC (centres unmarked) [CHP-Pro, CHP propionate] , what log10 of LC50 is on record?
Response given: -0.18

Challenge: For the molecule C=CC(C#N)OC(C)=O (centres unmarked) [CHP-Ace, CHP acetate] , what log10 of LC50 is on record?
Response given: -0.59

Challenge: For the molecule C=CCN=C=S [AITC, allyl isothiocyanate] , what log10 of LC50 is on record?
Response given: -0.89

* * *

# System: adult house fly (Musca domestica)
# measurement-conditions: in vivo
experimental-readout: effectiveness as topical pesticide

compound="C=CC(O)C#N (centres unmarked) [CHP, 3-cyano-3-hydroxy-1-propene]" result="relatively weak"
compound="N#CC(O)/C=C/c1ccccc1 (centres unmarked) [cinnamyl cyanohydrin]" result="relatively weak"
compound="CC(C)=CCCC(C)CC(O)C#N (centres unmarked) [citronellyl cyanohydrin]" result="not active"
compound="CC(C)=CCC/C(C)=C/C(O)C#N (centres unmarked) [citryl cyanohydrin]" result="not active"

* * *

Here, each record is paired with measured LC50 data.
# System: lesser grain borer (Rhizopertha dominica)
# measurement-conditions: in vivo
# number only, unit µg/mL dropped from output

molecule="C=CC(O)C#N (stereo not drawn) [CHP, 3-cyano-3-hydroxy-1-propene]" experimental_readout=LC50 numeric_value=0.37

Below: the item to evaluate.
Challenge: For the molecule C=CC(C#N)OC(=O)CC (stereo not drawn) [CHP-Pro, CHP propionate] , what LC50 is on record?
Response given: 0.70
